tested on: Escherichia coli (NCTC 10418); experiment: Antimicrobial screening, photobactericidal efficacy; format: cell-based; conditions: Escherichia coli, NCTC10418; foil-covered dark control; read-out: Minimum Bactericidal Concentration E. coli (Dark)
assay-endpoint: MBC (µM)
Expressed in µM, but write only the number.

// worked examples, MBC included
1. CN(C)CCCN(CCCN(C)C)c1ccc2nc3ccc(N(CCCN(C)C)CCCN(C)C)cc3[s+]c2c1 [Example 4a] : 12.5
2. CCN(CC)CCN(C)c1ccc2nc3ccc(N(CC)CC)cc3[s+]c2c1 [Example 7d] : 100
3. CCCCN(CCCC)c1ccc2nc3ccc(N(CC)CCN(CC)CC)cc3[s+]c2c1 [Example 7c] : 25
4. CCN(CC)CCCC(C)Nc1ccc2nc3ccc(N(CC)CC)cc3[s+]c2c1 (stereo not shown) [Example 7a] : 100

Proceed to the following item.
Input: Provide only the value of recorded MBC for CCN(CC)CCCN(CCCN(CC)CC)c1ccc2nc3ccc(N(CCCN(CC)CC)CCCN(CC)CC)cc3[s+]c2c1 [Example 4b]
Output: 100

###

Overview of recorded MBC for various molecules
test system: Staphylococcus aureus (NCTC 6571); test: Antimicrobial screening, photobactericidal efficacy; assay type: cell-based; settings: Staphylococcus aureus, NCTC6571; illuminated 20 min, LED 660 nm, 6.2 J cm^−2; 1 h incubation at 37° C.; read-out: Minimum Bactericidal Concentration S. aureus (Light)
Expressed in µM, but write only the number.

1) CN(C)CCCN(CCCN(C)C)c1ccc2nc3ccc(N(CCCN(C)C)CCCN(C)C)cc3[s+]c2c1 [Example 4a] : 3.12
2) CCN(CC)CCCC(C)Nc1ccc2nc3ccc(N(CC)CC)cc3[s+]c2c1 (centres unmarked) [Example 7a] : 25
3) CCN(CC)CCN(C)c1ccc2nc3ccc(N(C)CCN(CC)CC)cc3[s+]c2c1 [Example 4f] : 6.25

Input: Provide only the value of recorded MBC for CCN(CC)CCCN(CCCN(CC)CC)c1ccc2nc3ccc(N(CCCN(CC)CC)CCCN(CC)CC)cc3[s+]c2c1 [Example 4b]
Output: 50

Input: Provide only the value of recorded MBC for CCCCN(CCCC)c1ccc2nc3ccc(N(CC)CCN(CC)CC)cc3[s+]c2c1 [Example 7c]
Output: 12.5

Input: Provide only the value of recorded MBC for CCN(CC)CCN(C)c1ccc2nc3ccc(N(CC)CC)cc3[s+]c2c1 [Example 7d]
Output: 25

Input: Provide only the value of recorded MBC for CN(C)c1ccc2nc3ccc(N(C)C)cc3[s+]c2c1 [Methylene blue, reference compound]
Output: 25

Input: Provide only the value of recorded MBC for CCCN(CCC)c1ccc2nc3ccc(N(CCCN(C)C)CCCN(C)C)cc3[s+]c2c1 [Example 7e]
Output: 3.12

###

assay: Hydrophilic-lipophilic balance (Log P), phosphate-buffered saline / 1-octanol; settings: phosphate-buffered saline / 1-octanol
assay-endpoint: logP
// no unit, no text: just the number

// worked examples, logP included
1. CCN(CC)CCN(C)c1ccc2nc3ccc(N(C)CCN(CC)CC)cc3[s+]c2c1 : 0.27
2. CCN(CC)CCN(C)c1ccc2nc3ccc(N(CC)CC)cc3[s+]c2c1 : 0.74
3. CCCCN(CCCC)c1ccc2nc3ccc(N(CC)CCN(CC)CC)cc3[s+]c2c1 : 1.09
4. CCN(CC)CCCN(CCCN(CC)CC)c1ccc2nc3ccc(N(CCCN(CC)CC)CCCN(CC)CC)cc3[s+]c2c1 : 0.11

Proceed to the following item.
Input: Provide only the value of recorded logP for CCN(CC)CCCC(C)Nc1ccc2nc3ccc(N(CC)CC)cc3[s+]c2c1 (centres unmarked)
Output: 0.65
